target: thromboxane synthetase (Homo sapiens, UniProt P24557); construct: human platelet microsomes; assay: Thromboxane A2 (TxA2) synthetase inhibition, human platelet microsomes, rabbit aorta bioassay; details: test compound pre-incubated with enzyme for 5 minutes, read-out: Molar concentration causing 50% inhibition of thromboxane synthetase
Sequence (P24557 whole entry): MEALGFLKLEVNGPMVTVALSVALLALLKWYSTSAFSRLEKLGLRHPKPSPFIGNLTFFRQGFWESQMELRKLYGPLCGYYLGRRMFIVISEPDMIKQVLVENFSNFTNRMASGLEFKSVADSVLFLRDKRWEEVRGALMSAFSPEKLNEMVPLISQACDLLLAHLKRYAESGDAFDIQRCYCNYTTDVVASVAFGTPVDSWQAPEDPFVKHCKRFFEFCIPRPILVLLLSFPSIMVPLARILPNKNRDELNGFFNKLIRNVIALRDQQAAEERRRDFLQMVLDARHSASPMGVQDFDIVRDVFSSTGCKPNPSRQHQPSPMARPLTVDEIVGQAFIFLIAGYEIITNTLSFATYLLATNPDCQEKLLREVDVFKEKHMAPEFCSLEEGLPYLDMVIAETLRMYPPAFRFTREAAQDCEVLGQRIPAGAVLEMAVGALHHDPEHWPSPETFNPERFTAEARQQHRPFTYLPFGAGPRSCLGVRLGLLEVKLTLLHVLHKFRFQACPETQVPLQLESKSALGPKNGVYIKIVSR
Counter-ions that a name gives are not always drawn.
recorded-endpoint: pIC50
// pIC50 is dimensionless: -log10 of concentration (M)

A selection of reference data follows.
>>> df
                                   molecule  recorded_endpoint  measured_value
0  CCOC(=O)c1ccc(Cn2cc(Cn3ccnc3)c3ccccc32)cc1 [Example 7]              pIC50            9.80
1  CNC(=O)NCCCn1cc(Cn2ccnc2)c2ccccc21 [Example 46]              pIC50            8.68
2  c1ccc2c(c1)c(Cn1ccnc1)cn2CCc1nnn[nH]1 [Example 42]              pIC50           10.47
3  O=C(NCCCn1cc(Cn2ccnc2)c2ccccc21)Nc1ccccc1 [Example 47]              pIC50            8.26
4  NC(=O)c1ccc(Cn2cc(Cn3ccnc3)c3ccccc32)cc1 [Example 38]              pIC50            6.89

I'd like to know its pIC50. The molecule in question is O=C(O)CCn1cc(Cn2ccnc2)c2ccccc21 [Example 11, fumarate monohydrate]
10.40
